From: ChEMBL document CHEMBL3763148

Listing of entries alongside the reported inhibition of growth at 10 µM.
- Assay Method Text: Cytotoxicity against human RPMI8226 cells assessed as cell growth inhibition at 10 uM after 48 hrs by SRB assay relative to control
- Type: functional
- Experimental Context: RPMI-8226, 48 h, read-out: GI

Entry Smiles | inhibition of growth at 10 µM / %
NC(=O)c1ccc(-c2cccc3c(=O)nc(N4CCOCC4)oc23)cc1 | -4.18
O=c1nc(N2CCOCC2)oc2c(-c3cccs3)cccc12 | -0.55
O=c1nc(N2CCOCC2)oc2c(-c3cccc4ccccc34)cccc12 | 3.86
O=c1nc(N2CCOCC2)oc2c(-c3ccsc3)cccc12 | 3.35
O=c1nc(N2CCOCC2)oc2c(-c3cccc4c3oc3ccccc34)cccc12 | 1.19
O=c1nc(N2CCOCC2)oc2ccc(-c3cccc4c3sc3ccccc34)cc12 | 3.98
COc1ccc(-c2cccc3c(=O)nc(N4CCOCC4)oc23)cc1 | -0.31
O=c1nc(N2CCOCC2)oc2c(-c3cccc4c3sc3ccccc34)cccc12 | 19.7
